The reported numbers originate from paper PMC7926627.

Test: Differential pulse voltammetry (DPV)
Assay type: physicochemical
Conditions: pH 7.4, glassy carbon electrode, first anodic peak
Description: DPV experiments were performed as described in literature (see supplementary information). 1.4. Electrochemical measurements Voltammetric studies were carried out using an Autolab PGSTAT 12 potentiostat/galvanostat (Metrohm-Autolab, Netherlands) and one compartment glass electrochemical cell. […]
observable: Ep (redox potential)
Please format your answer as a value with the unit trailing.

For orientation, consider the following solved cases.
Asked: Need Ep (redox potential), item "O=C(/C=C/C=C/c1ccc2c(c1)OCO2)NCCCCCC[P+](c1ccccc1)(c1ccccc1)c1ccccc1.[Br-]"
Given back: 931 mV

Asked: Need Ep (redox potential), item "O=C(/C=C/C=C/c1ccc(O)c(O)c1)NCCCC[P+](c1ccccc1)(c1ccccc1)c1ccccc1.[Br-]"
Given back: 125 mV

Asked: Need Ep (redox potential), item "O=C(/C=C/C=C/c1ccc(O)c(O)c1)NCCCCCC[P+](c1ccccc1)(c1ccccc1)c1ccccc1.[Br-]"
Given back: 144 mV

Further cases:
Asked: Need Ep (redox potential), item "O=C(/C=C/C=C/c1ccc2c(c1)OCO2)NCCCC[P+](c1ccccc1)(c1ccccc1)c1ccccc1.[Br-]"
Given back: 942 mV

====

Give measured pIC50 for each item. Keep answers brief.
Biological target: hMAO-B (Homo sapiens)
Sequence (P27338 whole entry): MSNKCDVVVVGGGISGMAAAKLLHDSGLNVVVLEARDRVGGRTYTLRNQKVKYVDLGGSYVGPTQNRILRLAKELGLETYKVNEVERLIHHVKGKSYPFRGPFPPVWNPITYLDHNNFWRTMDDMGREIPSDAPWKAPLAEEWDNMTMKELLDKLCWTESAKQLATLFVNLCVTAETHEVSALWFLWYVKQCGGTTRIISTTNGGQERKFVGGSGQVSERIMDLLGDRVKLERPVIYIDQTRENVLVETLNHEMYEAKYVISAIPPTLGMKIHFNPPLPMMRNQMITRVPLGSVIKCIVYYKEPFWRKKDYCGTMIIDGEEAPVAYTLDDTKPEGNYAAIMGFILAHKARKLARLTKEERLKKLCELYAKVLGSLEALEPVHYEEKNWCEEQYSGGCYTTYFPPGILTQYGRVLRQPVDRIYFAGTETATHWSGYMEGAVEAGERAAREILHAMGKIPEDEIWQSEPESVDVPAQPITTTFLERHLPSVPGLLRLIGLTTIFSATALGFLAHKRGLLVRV
Test: biochemical
Parameters: purchased Sigma Aldrich; host or cells: insect cells (BTI-TN-5B1-4), baculovirus
One number for each entry, as −log10 of the molar value.

Asked: Need pIC50, item "O=C(/C=C/C=C/c1ccc2c(c1)OCO2)NCCCC[P+](c1ccccc1)(c1ccccc1)c1ccccc1.[Br-]"
Given back: 4.91

Asked: Need pIC50, item "O=C(/C=C/C=C/c1ccc(O)c(O)c1)NCCCCCC[P+](c1ccccc1)(c1ccccc1)c1ccccc1.[Br-]"
Given back: 4.96

Asked: Need pIC50, item "O=C(/C=C/C=C/c1ccc2c(c1)OCO2)NCCCCCC[P+](c1ccccc1)(c1ccccc1)c1ccccc1.[Br-]"
Given back: 5.33

Further cases:
Asked: Need pIC50, item "O=C(/C=C/C=C/c1ccc(O)c(O)c1)NCCCC[P+](c1ccccc1)(c1ccccc1)c1ccccc1.[Br-]"
Given back: 4.87

====

Give measured IC50 for each item. Keep answers brief.
Target: hAChE (Homo sapiens)
Sequence (P22303 32-574 limits assumed): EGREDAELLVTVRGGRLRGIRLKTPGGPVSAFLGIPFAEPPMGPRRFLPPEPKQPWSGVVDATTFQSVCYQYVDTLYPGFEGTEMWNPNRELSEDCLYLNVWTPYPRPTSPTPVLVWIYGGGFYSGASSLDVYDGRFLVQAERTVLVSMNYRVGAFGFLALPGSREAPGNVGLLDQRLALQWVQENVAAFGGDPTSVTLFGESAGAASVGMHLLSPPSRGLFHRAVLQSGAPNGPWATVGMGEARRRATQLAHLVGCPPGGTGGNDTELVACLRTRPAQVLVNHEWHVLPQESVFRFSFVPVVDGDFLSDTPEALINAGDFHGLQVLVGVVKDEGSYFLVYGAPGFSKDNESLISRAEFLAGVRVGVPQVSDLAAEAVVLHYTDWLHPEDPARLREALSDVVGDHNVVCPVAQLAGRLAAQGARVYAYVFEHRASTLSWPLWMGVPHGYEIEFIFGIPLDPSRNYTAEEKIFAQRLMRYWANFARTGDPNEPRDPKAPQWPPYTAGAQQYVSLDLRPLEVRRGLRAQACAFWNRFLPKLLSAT
Assay: Recombinant hAChE inhibition, Ellman's buffer
Give bare numbers, in µM.

For orientation, consider the following solved cases.
Asked: Need IC50, item "O=C(/C=C/C=C/c1ccc2c(c1)OCO2)NCCCCCC[P+](c1ccccc1)(c1ccccc1)c1ccccc1.[Br-]"
Given back: 2

Asked: Need IC50, item "O=C(/C=C/C=C/c1ccc2c(c1)OCO2)NCCCC[P+](c1ccccc1)(c1ccccc1)c1ccccc1.[Br-]"
Given back: 11

Asked: Need IC50, item "O=C(/C=C/C=C/c1ccc(O)c(O)c1)NCCCCCC[P+](c1ccccc1)(c1ccccc1)c1ccccc1.[Br-]"
Given back: 9

# input for lookup
Asked: Need IC50, item "O=C(/C=C/C=C/c1ccc(O)c(O)c1)NCCCC[P+](c1ccccc1)(c1ccccc1)c1ccccc1.[Br-]"
Given back: 22

====

Target: eqBChE (equine butyrylcholinesterase) (Equus caballus)
Construct: butyrylcholinesterase (eqBuChE, E.C. 3.1.1.8, from equine serum); purchased Sigma Aldrich; host or cells: equine serum
Sequence (P81908 whole entry): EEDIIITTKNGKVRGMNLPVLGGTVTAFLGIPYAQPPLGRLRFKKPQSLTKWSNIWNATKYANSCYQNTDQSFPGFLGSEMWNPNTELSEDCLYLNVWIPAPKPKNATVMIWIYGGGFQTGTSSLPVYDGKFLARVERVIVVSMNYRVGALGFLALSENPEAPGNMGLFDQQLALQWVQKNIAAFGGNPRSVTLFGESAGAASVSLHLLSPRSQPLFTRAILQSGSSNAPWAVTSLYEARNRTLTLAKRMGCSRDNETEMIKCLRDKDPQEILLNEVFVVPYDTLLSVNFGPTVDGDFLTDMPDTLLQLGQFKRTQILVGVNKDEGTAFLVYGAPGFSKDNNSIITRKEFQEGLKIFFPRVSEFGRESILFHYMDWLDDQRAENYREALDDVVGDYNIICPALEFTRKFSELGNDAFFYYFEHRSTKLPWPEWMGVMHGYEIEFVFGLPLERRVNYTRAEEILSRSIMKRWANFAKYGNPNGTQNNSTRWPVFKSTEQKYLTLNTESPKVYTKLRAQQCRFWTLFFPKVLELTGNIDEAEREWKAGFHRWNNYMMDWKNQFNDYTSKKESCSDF
Assay: biochemical
Give measured IC50 for each item. Keep answers brief.
Answers are plain numbers, in nM.

For orientation, consider the following solved cases.
Asked: Need IC50, item "O=C(/C=C/C=C/c1ccc2c(c1)OCO2)NCCCC[P+](c1ccccc1)(c1ccccc1)c1ccccc1.[Br-]"
Given back: 28.2

Asked: Need IC50, item "O=C(/C=C/C=C/c1ccc(O)c(O)c1)NCCCCCC[P+](c1ccccc1)(c1ccccc1)c1ccccc1.[Br-]"
Given back: 34.1

Asked: Need IC50, item "O=C(/C=C/C=C/c1ccc(O)c(O)c1)NCCCC[P+](c1ccccc1)(c1ccccc1)c1ccccc1.[Br-]"
Given back: 61.9

# input for lookup
Asked: Need IC50, item "O=C(/C=C/C=C/c1ccc2c(c1)OCO2)NCCCCCC[P+](c1ccccc1)(c1ccccc1)c1ccccc1.[Br-]"
Given back: 17.9
